// provenance: PubChem BioAssay (NCI)

Reported growth values for the following compounds.
- Test system: BT-549 breast
- EXPERIMENT: NCI-60 one-dose screen, 48 h (100 = growth as untreated, 0 = no growth, -100 = all killed)
- APPLIED CONDITIONS: 10 µM unless noted
The panel holds about 83,000 compounds, 20% with a hit somewhere; the sample as a whole holds those more often.
Respond with the bare value in %.

Observe how each entry below is paired with its result.
Task item: Record lookup: for BT-549 breast, what growth belongs to Cc1ccc(C(=O)CSc2nc3ccc(F)cc3c(=O)n2-c2ccc(Cl)cc2)cc1 ?
Reply: 1.44

Task item: So what growth did O=C1NC(=O)c2c1c1c3cc(Br)ccc3[nH]c1c1oc3ccc(F)cc3c21 get with BT-549 breast?
Reply: 15.1

Task item: # get_value(readout= growth, system= BT-549 breast) for Cc1ccc2c(N)c(C(=O)Nc3ccc(OC(F)(F)F)cc3)sc2n1
Reply: 86.8

Others:
Task item: Find growth (BT-549 breast) for the entry O=c1cc(-c2ccccc2)oc2cc(OCCCC[P+](c3ccccc3)(c3ccccc3)c3ccccc3)cc(O)c12
Reply: -83

Task item: Quick check: growth on BT-549 breast, item CC(=O)Nc1cccc(-c2nc3cc(-c4ccc(O)cc4)ccc3n2C)c1 ?
Reply: -8.08
